MEASUREMENT PROTOCOL: P. aeruginosa biofilm formation inhibitors, primary screen, PAO1 strain, BacTiter-Glo luminescence, LB-PBS (AID 1144)
TEST CONDITIONS: 12 h, higher = more signal
So basically, the class depends on measured z-score, and the ranges are LOW: < -0.1; MEDIUM: ≥ -0.1 and < 0.3; HIGH: ≥ 0.3

Task: For COc1ccc(O[C@H]2C=C[C@@H](c3ccccc3)O[C@@H]2COC(=O)CCC(C)=NOC[C@@H](C)[C@H](OCc2ccccc2)C(C)C)cc1 , which z-score bin applies?
Output: MEDIUM

Task: For COc1ccc(COC(=O)NN=C2C[C@@H](O)[C@@H](O)[C@@H]3[C@@H]4C(=O)N(c5ccc(F)cc5F)C(=O)[C@@H]4CC[C@@H]23)cc1 , which z-score bin applies?
Output: HIGH

Task: For COC(=O)[C@@]1(Cc2ccc(F)cc2)[C@@H]2C(=CC(=O)[C@H]2CC(=O)C(=O)N(C)C)CN1C(=O)c1ccccc1 , which z-score bin applies?
Output: HIGH

Task: For C#CCCCON=C1C[C@@H](O)[C@@H](O)[C@@H]2[C@@H]3C(=O)N(Cc4ccccc4)C(=O)[C@@H]3CC[C@H]12 , which z-score bin applies?
Output: LOW

Task: For CS(=O)(=O)CCOC(=O)C1=CC(CCCO)=CC(c2cccs2)N(Cc2cccc(OC(F)(F)F)c2)C=C1C(=O)OCCS(C)(=O)=O (stereo not given) , which z-score bin applies?
Output: HIGH

Task: For CCOC(=O)[C@H](Cc1ccccc1)NC(=O)CCC1CC(OC(=O)NCc2ccc3c(c2)OCO3)CC2(CCCC(COC(=O)NCc3ccccc3)O2)O1 (stereo not given in full) , which z-score bin applies?
Output: LOW

Task: For Cn1c(=O)n2n(c1=O)[C@H]1[C@H](O)[C@@H]3O[C@@H]3C(=NOC[C@@H](O)COCc3ccco3)[C@H]1CC2 , which z-score bin applies?
Output: MEDIUM

Task: For CN1C(=O)C2C(C1=O)C1C=C(CCCO)C2C(c2ccc(CN3CCCC3)cc2)N1C (stereo not given) , which z-score bin applies?
Output: HIGH

Task: For O[C@@H](Cc1ccccc1)[C@H]1C2C=CCCC(c3ccccc3)=C2CN1Cc1cccc(Cl)c1 (stereo not given in full) , which z-score bin applies?
Output: LOW

Task: For CCCNC(=O)[C@@H]1c2ccccc2C(=O)N(c2ccc(C)cn2)[C@H]1c1ccc(CO)cc1 , which z-score bin applies?
Output: MEDIUM

Task: For COCCOC(=O)N1C(=O)[C@@]2(c3cc(C#Cc4ccc(OC)cc4)ccc31)[C@H](C(=O)N1CCN(c3ncccn3)CC1)[C@H]1C(=O)O[C@H](c3ccccc3)[C@H](c3ccccc3)N1[C@@H]2c1ccc(OCCO)cc1 , which z-score bin applies?
Output: LOW

Task: For CO[C@@H]1COC(=O)CC=C[C@@H](C)[C@H](OC)COC(=O)[C@H](COCc2ccccc2)NC(=O)CC=C[C@H]1C , which z-score bin applies?
Output: MEDIUM

Task: For Cc1ccc(S(=O)(=O)N[C@@H]2COC(=O)[C@H](C)COC(=O)CC=C[C@H]2C)cc1 , which z-score bin applies?
Output: HIGH

Task: For Cc1ccc(S[C@]2(C(=O)NCC(F)(F)F)CC(=O)N(Cc3ccccc3Cl)[C@@H]2c2ccc(CO)cc2I)cc1 , which z-score bin applies?
Output: HIGH

Task: For C#CCCCON=C1C[C@@H](O)[C@@H](O)[C@@H]2[C@@H]3C(=O)N(CCC(=O)OCC)C(=O)[C@@H]3CC[C@@H]12 , which z-score bin applies?
Output: LOW

Task: For CCOc1ccc(N2C(=O)/C(=C/C=C/c3ccccc3OC)S(=O)(=O)C2c2cccc([N+](=O)[O-])c2)cc1 (stereo not given) , which z-score bin applies?
Output: LOW

Task: For O=C1O[C@@H](c2ccccc2)[C@@H](c2ccccc2)N2[C@@H](c3ccc(O)cc3)[C@]3(C(=O)Nc4ccccc43)[C@@H](C(=O)O)[C@H]12 , which z-score bin applies?
Output: MEDIUM

Task: For O=C1[C@H]2[C@H]3[C@H](O)[C@H](O)CC(=NOCc4ccccc4)[C@@H]3CC[C@H]2C(=O)N1C1CCCCC1 , which z-score bin applies?
Output: HIGH

Task: For Cc1ccc(C2CC=C(C(=O)O)CN2S(=O)(=O)c2ccc(C)cc2)cc1 (stereo not given) , which z-score bin applies?
Output: LOW

Task: For CC(C)(C)OC(=O)CC[C@]1(C(=O)NCc2ccccc2)N=C(c2ccc(OCCCO)cc2)O[C@H]1c1ccccc1 , which z-score bin applies?
Output: LOW

Task: For CCCCCCc1nc(CCCc2cc3c(c(CCCCCC)n2)[Si](C(C)C)(C(C)C)O[C@H]3c2ccccc2)cc2c1[Si](C(C)C)(C(C)C)O[C@H]2c1ccccc1 , which z-score bin applies?
Output: MEDIUM

Task: For O=C1CCCC=C1C(O)CCOCc1ccccc1 (stereo not given) , which z-score bin applies?
Output: HIGH

Task: For COc1ccc(O[C@H]2C=C[C@@H](c3ccccc3)O[C@@H]2COC(=O)CCC(C)=NOCC[C@@H]2C=C[C@H](OC(C)=O)[C@@H](COC(C)=O)O2)cc1 , which z-score bin applies?
Output: HIGH

Task: For Cc1ccc(F)cc1S(=O)(=O)N[C@@H]1CCN(Cc2ccc(CC(C)C)cc2)C1 , which z-score bin applies?
Output: LOW
